- Experimental System: HLA-B*15:01
- Experimental Protocol: IEDB peptide-MHC binding, purified MHC/competitive/fluorescence; filed as Kd, often an IC50 or EC50 that approximates it; bounds were set here for any values at or beyond the usual limits of such assays
- Stated Conditions: source organism: Salmonella enterica subsp. enterica serovar Typhi

{"Entry Sequence": "KTVRYWHRF", "Limit Sign": "≥", "Kd (nM)": 20000}
{"Entry Sequence": "KQLELFWVI", "Limit Sign": "=", "Kd (nM)": 497}
{"Entry Sequence": "ISANANFSY", "Limit Sign": "=", "Kd (nM)": 210}

====

- Experimental System: HLA-C*12:03
- Experimental Protocol: IEDB peptide-MHC binding, purified MHC/direct/fluorescence; filed as Kd, often an IC50 or EC50 that approximates it; bounds were set here for any values at or beyond the usual limits of such assays
- Stated Conditions: source organism: Cryptosporidium parvum Iowa II
pKd: −log10 of the molar value.
Measure Name: pKd

{"Entry Sequence": "WMYNIQPYL", "Measure Name": "pKd", "Result Number": 6.34}

Reference for the values: the Immune Epitope Database (IEDB)
